target: PrgB188-1233 monomer (Enterococcus faecalis (plasmid pCF10), UniProt Q04112 188-1233); assay: ITC
measure-name: Kd
Please append the unit to your numeric answer.

query: What measured Kd goes with 19-bp dsDNA (dsDNA) DNA 1: GGGGGCGGGGCGGGCGGCG DNA 2: CGCCGCCCGCCCCGCCCCC ?
result: 364 µM
